test system: RPMI-8226; assay: NCI tumour cell line growth inhibition, 48 h
Active and inactive are the calls of the source. Cut-off read from the data, not from the text of the source: active = GI50 up to about 1.1 µM and inactive = higher.
Classes used: 1 (active), 0 (inactive)

INSERT INTO measurements (molecule, assigned_class) VALUES
  ('Cc1ccc(S(=O)(=O)Nc2cccc(C)c2C)cc1', 0),
  ('CC(C)(C)c1cc(S(=O)(=O)O)c2oc(-c3ccccc3)cc(=O)c2c1', 0),
  ('CCOC(=O)n1c2ccccc2c2c(O)c(OC)c3c(c21)C(=O)NC3=O', 0),
  ('CC(NC(=O)c1ccc(NP(=O)(OCc2ccc([N+](=O)[O-])o2)N(C)CCCCCl)cc1)c1ccc(OCC2CCCCC2)c(C(N)=O)c1 (stereo not given)', 0),
  ('Cc1ccc(N(Cc2ccccc2)Cc2ccccc2)cc1', 0),
  ('O=C1c2ccccc2-c2ccc(O)cc21', 0),
  ('O=[N+]([O-])/C=C/COCc1cc2c(cc1Br)OCO2', 0),
  ('Cc1noc2c1C(=O)CCC2', 0),
  ('O=C1Nc2cc(Cl)ccc2C(=O)N2CCC[C@@H]12', 0),
  ('O=C(CC(=O)Nc1ccccc1Cl)NNC(Sc1ccccc1)c1cc(/N=N/c2ccc(Br)cc2)ccc1O (stereo not given)', 0),
  ('Brc1ccc(/N=N/c2ccc3ccccc3n2)cc1', 0),
  ('O=C1CC(c2ccsc2)n2cccc21 (stereo not given)', 0),
  ('N=C(N)NS(=O)(=O)c1ccc(NC(=O)c2ccc3nc4ccccc4c(Nc4ccc(S(=O)(=O)N=C(N)N)cc4)c3c2)cc1', 0),
  ('COc1cc2c(cc1OC)C(N)CC2=O (stereo not given)', 0),
  ('Nc1nc(N)c(Cn2ccnc2)c(O)n1', 0),
  ('O=c1[nH]cnc2[nH]nnc12', 1),
  ('CC1(C)C2CCC(N)(C2)C1N (stereo not given)', 0),
  ('O=C(O)CN1CCNCCN(CC(=O)O)CC1', 0),
  ('C=C[Si](C)(C)COC(=O)/C(C#N)=C/C=C/c1ccccc1', 0),
  ('Cc1cccc(-c2cc(=O)c3cc(C)c(C)c(C(=O)O)c3o2)c1', 0),
  ('Oc1ccc(CNCc2ccccc2)c2cccnc12', 1),
  ('COc1cc2cc(C(=O)N3CC(CCl)c4c3cc(NC(=O)OCc3ccc([N+](=O)[O-])cc3)c3ccccc43)[nH]c2c(OC)c1OC (stereo not given)', 0),
  ('Cc1cc(Cc2cc(C)c(NC(=O)C(=O)C3C(=O)NC(=S)NC3=O)c(C(C)C)c2)cc(C(C)C)c1NC(=O)C(=O)C1C(=O)NC(=S)NC1=O', 0),
  ('COc1cc2c[n+](C)c3c4cc(OC)c(OC)cc4c(OC)cc3c2cc1OC', 0),
  ('CC1=C(C(=O)OC(C)C)C(c2cccc([N+](=O)[O-])c2)C(C(=O)OC(CO[N+](=O)[O-])CO[N+](=O)[O-])=C(C)N1 (stereo not given)', 1),
  ('Cc1cccc(/N=N/c2ccc(O)c(CN(C)C)c2)c1', 0),
  ('CN(C)/C=N\c1c(Br)cc(Br)c2nonc12', 0),
  ('COc1ccc(NC(=O)/C(=C/c2ccccc2)C(C)=O)cc1', 0),
  ('NNC(=O)N/N=C(/CC1(O)C(=O)Nc2ccc(Br)cc21)c1ccccc1 (stereo not given)', 0),
  ('CC(NC1=CC(=O)c2cccnc2C1=O)C(O)c1ccccc1 (stereo not given)', 0);
